Every entry's value here was drawn from ChEMBL document CHEMBL5131513.

# Organism: Homo sapiens
# Experiment: Inhibition of nNOS (unknown origin)/CAPON (unknown origin) protein-protein interaction assessed as residual activity by coimmunoprecipitation assay relative to control
# Set-up: concentration or dose not given beside the values
Kindly state Activity for each of the entries shown.
All answers are understood in %, so give the number only.

The recorded Activity for entry COC(=O)[C@@H](NC(=O)CC(=O)O)C(C)C equals 37.5

The recorded Activity for entry COC(=O)[C@@H](Cc1ccccc1)NC(=O)CC(=O)O equals 76.6

The recorded Activity for entry COC(=O)CCC(=O)N[C@@H](C(=O)OC)C(C)C equals 61.8

The recorded Activity for entry COC(=O)[C@H](NC(=O)CC(=O)O)C(C)C equals 30.5

The recorded Activity for entry COC(=O)[C@H](NC(=O)Cc1nnn[nH]1)C(C)C equals 49.4

The recorded Activity for entry CC(C)[C@@H](NC(=O)CC(=O)O)C(=O)O equals 75

The recorded Activity for entry COC(=O)[C@H](NCCC(=O)O)C(C)C equals 87.8

The recorded Activity for entry COC(=O)CC(=O)N[C@@H](C(=O)OC)C(C)C equals 26.3
